Settings: 313.15 K; 101 kPa; Liquid; Capillary tube (Ostwald / Ubbelohde) method
Criterion: viscosity strictly less than 0.9 mPa·s. Met: satisfied. Not met: not satisfied.

ClC(Cl)=C(Cl)Cl | satisfied
ClC(Cl)C(Cl)Cl | not satisfied
ClCCCl | satisfied
ClC=C(Cl)Cl | satisfied

Next:
q: A record lists N#CCc1ccccc1 . Is its viscosity below 0.9 mPa·s?
a: not satisfied

###

Conditions: 303.15 K; 101 kPa; Liquid; Frequency=2 MHz; Pulse-echo method
QUANTITY_KIND: speed of sound (m/s)
Could you give me the number in m/s? Just the number is fine.

ClC(Cl)C(Cl)Cl | 1134.7

q: Bench note: what speed of sound did ClCC(Cl)Cl show?
a: 1129.2

q: Further, for ClC=C(Cl)Cl ?
a: 1014.7

q: Further, for ClC(Cl)=C(Cl)Cl ?
a: 1028

q: Further, for N#CCc1ccccc1 ?
a: 1519.2

q: Further, for ClCCCl ?
a: 1174

###

Conditions: 303.15 K; 101.33 kPa; Liquid; Vibrating tube method
QUANTITY_KIND: mass density (kg/m3)
Could you give me the number in kg/m3? Just the number is fine.

Please review the entries below; each comes with its answer.
ClCCCl [1,2-dichloroethane] | 1238.7
ClCC(Cl)Cl [1,1,2-trichloroethane] | 1425
ClC(Cl)C(Cl)Cl [1,1,2,2-tetrachloroethane] | 1579.6
ClC(Cl)=C(Cl)Cl [tetrachloroethene] | 1607.2

For the next question, use this compound.
q: Bench note: what mass density did ClC=C(Cl)Cl [trichloroethene] show?
a: 1447.5

###

Settings: 308.15 K; 101 kPa; Liquid; Frequency=2 MHz; Pulse-echo method
QUANTITY_KIND: speed of sound (m/s)
Could you give me the number in m/s? Just the number is fine.

Please review the entries below; each comes with its answer.
ClCCCl | 1164.8
N#CCc1ccccc1 | 1512.9
ClC(Cl)C(Cl)Cl | 1115.5
ClC=C(Cl)Cl | 993.7
ClC(Cl)=C(Cl)Cl | 1014

For the next question, use this molecule.
q: Bench note: what speed of sound did ClCC(Cl)Cl show?
a: 1115.9

###

Settings: 313.15 K; 101 kPa; Liquid; Frequency=2 MHz; Pulse-echo method
QUANTITY_KIND: speed of sound (m/s)
Could you give me the number in m/s? Just the number is fine.

Please review the entries below; each comes with its answer.
N#CCc1ccccc1 | 1503.4
ClC=C(Cl)Cl | 982
ClC(Cl)=C(Cl)Cl | 996.6
ClCCCl | 1153.5
ClC(Cl)C(Cl)Cl | 1095.5

For the next question, use this compound.
q: Bench note: what speed of sound did ClCC(Cl)Cl show?
a: 1096.1

###

Conditions: 303.15 K; 101 kPa; Liquid; Capillary tube (Ostwald / Ubbelohde) method
QUANTITY_KIND: viscosity (mPa·s)
Could you give me the number in mPa·s? Just the number is fine.

ClCCCl | 0.7237
ClCC(Cl)Cl | 1.019
ClC=C(Cl)Cl | 0.5172
ClC(Cl)=C(Cl)Cl | 0.7971

q: Bench note: what viscosity did N#CCc1ccccc1 show?
a: 1.761

q: Further, for ClC(Cl)C(Cl)Cl ?
a: 1.456

###

Settings: 298.15 K; 101 kPa; Liquid; Capillary tube (Ostwald / Ubbelohde) method
Measured viscosity, listed per entry for reference.
Could you give me the number in mPa·s? Just the number is fine.

ClC=C(Cl)Cl | 0.527

q: Bench note: what viscosity did ClC(Cl)=C(Cl)Cl show?
a: 0.847

q: Further, for ClCCCl ?
a: 0.776

q: Further, for ClCC(Cl)Cl ?
a: 1.105

###

Conditions: 308.15 K; 101 kPa; Liquid; Capillary tube (Ostwald / Ubbelohde) method
Measured viscosity, listed per entry for reference.
Could you give me the number in mPa·s? Just the number is fine.

Please review the entries below; each comes with its answer.
ClCC(Cl)Cl | 0.9483
ClC=C(Cl)Cl | 0.4992
ClCCCl | 0.6737
N#CCc1ccccc1 | 1.602
ClC(Cl)=C(Cl)Cl | 0.7657

q: Bench note: what viscosity did ClC(Cl)C(Cl)Cl show?
a: 1.354

###

Settings: 313.15 K; 101.33 kPa; Liquid; Vibrating tube method
Numbers after ± are expanded uncertainties.
QUANTITY_KIND: mass density
For clarity, give the value followed by its unit.

Please review the entries below; each comes with its answer.
ClC=C(Cl)Cl [trichloroethene] | 1430.4 ± 0.6 kg/m3
ClCC(Cl)Cl [1,1,2-trichloroethane] | 1409.6 ± 1.8 kg/m3
N#CCc1ccccc1 [benzeneacetonitrile] | 999.5 ± 0.8 kg/m3
ClC(Cl)C(Cl)Cl [1,1,2,2-tetrachloroethane] | 1563.7 ± 1.4 kg/m3
ClCCCl [1,2-dichloroethane] | 1223.7 ± 0.4 kg/m3

For the next question, use this molecule.
q: Bench note: what mass density did ClC(Cl)=C(Cl)Cl [tetrachloroethene] show?
a: 1590.6 ± 0.8 kg/m3

###

Measured mass density, listed per entry for reference.
Conditions: 298.15 K; 101.33 kPa; Liquid; Vibrating tube method
Could you give me the number in kg/m3? Just the number is fine.

q: Bench note: what mass density did ClC(Cl)C(Cl)Cl show?
a: 1586.8

q: Further, for ClC=C(Cl)Cl ?
a: 1455.9

q: Further, for ClCCCl ?
a: 1246.7

q: Further, for ClC(Cl)=C(Cl)Cl ?
a: 1614.8

###

Conditions: 308.15 K; 101.33 kPa; Liquid; Vibrating tube method
QUANTITY_KIND: mass density (kg/m3)
Could you give me the number in kg/m3? Just the number is fine.

ClCC(Cl)Cl [1,1,2-trichloroethane] | 1416.1
N#CCc1ccccc1 [benzeneacetonitrile] | 1004.1
ClC=C(Cl)Cl [trichloroethene] | 1437.8
ClC(Cl)C(Cl)Cl [1,1,2,2-tetrachloroethane] | 1570.6
ClC(Cl)=C(Cl)Cl [tetrachloroethene] | 1597.9

q: Bench note: what mass density did ClCCCl [1,2-dichloroethane] show?
a: 1230.5
